- Organism: Rattus norvegicus
- measurement-notes: Open TG-GATES - Regimen: Single
- Format: toxicity, organism-based, Sprague-Dawley
- Design: regimen Single, gender Male, age 6 weeks
- condition: in vivo, po, 100 mg/kg, 9 h, tissue Plasma, route gavage, dose level Low
We begin with a simple list: items and their reported TC.
endpoint-name: TC (mg/dL)

* CNC(=C[N+](=O)[O-])NCCSCc1ccc(CN(C)C)o1 | 78.6
* Cc1nnc2n1-c1ccc(Cl)cc1C(c1ccccc1Cl)=NC2 | 75.4
* CN/C(=N/CCSCc1nc[nH]c1C)NC#N | 74.4

----------
Attribute: Cl
- Organism: Rattus norvegicus
- measurement-notes: Open TG-GATES - Regimen: Single
- Type: toxicity, organism-based, Sprague-Dawley
- Set-up: regimen Single, gender Male, age 6 weeks
- condition: in vivo, po, 100 mg/kg, 9 h, tissue Plasma, route gavage, dose level Low
endpoint-name: Cl (meq/L)

• CNC(=C[N+](=O)[O-])NCCSCc1ccc(CN(C)C)o1 [RANITIDINE] = 103.4
• COC(=O)C1=C(C)NC(C)=C(C(=O)OC)C1c1ccccc1[N+](=O)[O-] [NIFEDIPINE] = 102
• CN/C(=N/CCSCc1nc[nH]c1C)NC#N [CIMETIDINE] = 103.4
• O=C(OC[C@H]1O[C@@H](OC(=O)c2cc(O)c(O)c(OC(=O)c3cc(O)c(O)c(O)c3)c2)[C@H](OC(=O)c2cc(O)c(O)c(OC(=O)c3cc(O)c(O)c(O)c3)c2)[C@@H](OC(=O)c2cc(O)c(O)c(OC(=O)c3cc(O)c(O)c(O)c3)c2)[C@@H]1OC(=O)c1cc(O)c(O)c(OC(=O)c2cc(O)c(O)c(O)c2)c1)c1cc(O)c(O)c(OC(=O)c2cc(O)c(O)c(O)c2)c1 [TANNIC ACID] = 106.4
• Cc1nnc2n1-c1ccc(Cl)cc1C(c1ccccc1Cl)=NC2 [TRIAZOLAM] = 105

----------
- Species on record: Rattus norvegicus
- measurement-notes: Open TG-GATES - Regimen: Single
- Assay type: toxicity, organism-based, Sprague-Dawley
- Set-up: regimen Single, gender Male, age 6 weeks
- condition: in vivo, po, 100 mg/kg, 6 h, tissue Kidney, route gavage, dose level Low
endpoint-name: KIDNEY_R (g)

• Cc1nnc2n1-c1ccc(Cl)cc1C(c1ccccc1Cl)=NC2 = 0.9
• CNC(=C[N+](=O)[O-])NCCSCc1ccc(CN(C)C)o1 = 1
• O=C(OC[C@H]1O[C@@H](OC(=O)c2cc(O)c(O)c(OC(=O)c3cc(O)c(O)c(O)c3)c2)[C@H](OC(=O)c2cc(O)c(O)c(OC(=O)c3cc(O)c(O)c(O)c3)c2)[C@@H](OC(=O)c2cc(O)c(O)c(OC(=O)c3cc(O)c(O)c(O)c3)c2)[C@@H]1OC(=O)c1cc(O)c(O)c(OC(=O)c2cc(O)c(O)c(O)c2)c1)c1cc(O)c(O)c(OC(=O)c2cc(O)c(O)c(O)c2)c1 = 0.9
• COC(=O)C1=C(C)NC(C)=C(C(=O)OC)C1c1ccccc1[N+](=O)[O-] = 0.9
• CN/C(=N/CCSCc1nc[nH]c1C)NC#N = 1

----------
- Species on record: Rattus norvegicus
- measurement-notes: Open TG-GATES - Regimen: Daily Repeat
- Type: toxicity, organism-based, Sprague-Dawley
- Set-up: regimen Daily Repeat, gender Male, age 6 weeks
- condition: in vivo, po, 0 mg/kg, […], tissue Plasma, route gavage, dose level Control, time 28 day
endpoint-name: PL (mg/dL)

- NC1=NC(=O)C(c2ccccc2)O1 (stereo unspecified): 160.2
- CCOc1ccc(NC(C)=O)cc1: 149
- CCCc1cc(=O)[nH]c(=S)[nH]1: 161.6
- O=C(OC[C@H]1O[C@@H](OC(=O)c2cc(O)c(O)c(OC(=O)c3cc(O)c(O)c(O)c3)c2)[C@H](OC(=O)c2cc(O)c(O)c(OC(=O)c3cc(O)c(O)c(O)c3)c2)[C@@H](OC(=O)c2cc(O)c(O)c(OC(=O)c3cc(O)c(O)c(O)c3)c2)[C@@H]1OC(=O)c1cc(O)c(O)c(OC(=O)c2cc(O)c(O)c(O)c2)c1)c1cc(O)c(O)c(OC(=O)c2cc(O)c(O)c(O)c2)c1: 152.6
- CC(C)NNC(=O)c1ccncc1: 142.4
- COC(=O)C1=C(C)NC(C)=C(C(=O)OC)C1c1ccccc1[N+](=O)[O-]: 161.6

Attribution: ChEMBL document CHEMBL3885861
